Values compiled from patent US20240317764A1.

ASSAY METHOD TEXT: physchem
CONDITION PARAMETERS: MIBK, 26 °C, organic solvent or mixture, thermodynamic from solid
Structures can show the parent of a compound that is named as a salt.
MEASURE: solubility

Q) # return recorded solubility for entry CCOc1cccc(-c2nc3ncc(NS(C)(=O)=O)nc3n2-c2c(OC)cccc2OC)n1 [Compound I choline salt Form A]
A) < 2300 µg/mL

----------
ASSAY METHOD TEXT: Approximate solubility of Compound I free acid Form A in 14 solvents at RT
Assay type: physicochemical
CONDITION PARAMETERS: organic solvent or mixture, thermodynamic from solid, IPA
Experimental: Approximate solubility of starting material (Compound I free acid Form A) was determined in 14 solvents at RT. Approximately 2 mg of sample was added into a 3-mL glass vial. Solvents in Table 1-3 were then added stepwise into the vials until the solids were dissolved visually or a total volume of 2 mL was reached. Solubility results summarized in Table 1-1 were used to guide the solvent selection in screening experiment design.
MEASURE: solubility

Q) Supply measured solubility of CCOc1cccc(-c2nc3ncc(NS(C)(=O)=O)nc3n2-c2c(OC)cccc2OC)n1 [Compound I free acid Form A] in your reply.
A) < 900 µg/mL

----------
ASSAY METHOD TEXT: Approximate solubility of Compound I free acid Form A in 14 solvents at RT
Assay type: physicochemical
CONDITION PARAMETERS: organic solvent or mixture, thermodynamic from solid, ACN
MEASURE: solubility

Q) Consider the compound CCOc1cccc(-c2nc3ncc(NS(C)(=O)=O)nc3n2-c2c(OC)cccc2OC)n1 [Compound I free acid Form A] . State its measured solubility.
A) 2000 to 5000 µg/mL

----------
ASSAY METHOD TEXT: Approximate solubility of Compound I free acid Form A in 14 solvents at RT
Type: physicochemical
CONDITION PARAMETERS: organic solvent or mixture, thermodynamic from solid, toluene
MEASURE: solubility

Q) Note down solubility recorded for CCOc1cccc(-c2nc3ncc(NS(C)(=O)=O)nc3n2-c2c(OC)cccc2OC)n1 [Compound I free acid Form A]
A) < 800 µg/mL

----------
Known Water uptake (25° C./80% RH) of a selection of molecules
ASSAY METHOD TEXT: Hygroscopicity by DVS at 25° C. between 0% RH and 95% RH, XRPD after DVS
Assay type: physicochemical
CONDITION PARAMETERS: DVS, 25° C./80% RH
Counter-ions that a name gives are not always drawn.
# value in %; strip the unit string

>>> readout_number("CCOc1cccc(-c2nc3ncc(NS(C)(=O)=O)nc3n2-c2c(OC)cccc2OC)n1 [Compound I choline salt Form A]")
3.85
>>> readout_number("CCOc1cccc(-c2nc3ncc([N-]S(C)(=O)=O)nc3n2-c2c(OC)cccc2OC)n1.[Na+] [Compound I sodium salt Form A]")
1.13
>>> readout_number("CCOc1cccc(-c2nc3ncc(NS(C)(=O)=O)nc3n2-c2c(OC)cccc2OC)n1 [Compound I free acid Form A]")
0.03

// below: Water uptake (25° C./80% RH) requested for another molecule
Q) Provide one value: measured Water uptake (25° C./80% RH) of CCOc1cccc(-c2nc3ncc([N-]S(C)(=O)=O)nc3n2-c2c(OC)cccc2OC)n1.[K+] [Compound I potassium salt Form A]
A) 3.71

----------
ASSAY METHOD TEXT: Approximate solubility of Compound I free acid Form A in 14 solvents at RT
Assay type: physicochemical
CONDITION PARAMETERS: organic solvent or mixture, thermodynamic from solid, EtOAc
MEASURE: solubility

Q) Output measured solubility for this item: CCOc1cccc(-c2nc3ncc(NS(C)(=O)=O)nc3n2-c2c(OC)cccc2OC)n1 [Compound I free acid Form A]
A) < 1000 µg/mL
